Attribution: patent US12370208B2

experiment: Plasma stability and conversion to EFdA in human plasma; format: in vitro ADME; conditions: human plasma
measured.quantity: Stability in Human Plasma Formation of EFdA

[[record]]
compound = "C#C[C@]1(COC(=O)NC(C)C)O[C@@H](n2cnc3c(N)nc(F)nc32)C[C@@H]1O [Formula 2-A]"
test_result = "No"

[[record]]
compound = "C#C[C@]1(COC(=O)NCCN(C)Cc2oc(=O)oc2C)O[C@@H](n2cnc3c(N)nc(F)nc32)C[C@@H]1O [Formula 7-A]"
test_result = "No"

[[record]]
compound = "C#C[C@]1(COC(=O)OCc2oc(=O)oc2C)O[C@@H](n2cnc3c(N)nc(F)nc32)C[C@@H]1O [Formula 4-A]"
test_result = "Yes"

[[record]]
compound = "C#C[C@]1(CO)O[C@@H](n2cnc3c(NC(=O)OC(C)C)nc(F)nc32)C[C@@H]1O [Formula 3-A]"
test_result = "No"

[[record]]
compound = "C#C[C@]1(COC(=O)OCc2oc(=O)oc2C)O[C@@H](n2cnc3c(N)nc(F)nc32)C[C@@H]1OC(=O)OCc1oc(=O)oc1C [Formula 4-C]"
test_result = "Yes"

[[record]]
compound = "C#C[C@]1(COC(=O)NC)O[C@@H](n2cnc3c(N)nc(F)nc32)C[C@@H]1O [Formula 5-A]"
test_result = "No"


Need Stability in Human Plasma Formation of EFdA, item C#C[C@]1(CO)O[C@@H](n2cnc3c(NCc4oc(=O)oc4C)nc(F)nc32)C[C@@H]1O [Formula 6-A]
No
